# Test system: M14
# protocol-summary: NCI tumour cell line growth inhibition, 48 h
Active and inactive are the calls of the source. Rule as the data show it: active = GI50 up to about 1.1 µM and inactive = higher.

# compound, study-target, GI50
data = [
    ("Cn1c2cc(O)cc(O)c2c(=O)c2c([N+](=O)[O-])cccc21", "M14", "> 100 µM (inactive)"),
    ("COP(=O)(OC)C(Cc1c[nH]c2ccccc12)NC(=O)OCc1ccccc1 (stereo unspecified)", "M14", "> 100 µM (inactive)"),
    ("CCOc1ccc(-n2nnc3c(N)nc(N)nc32)cc1", "M14", "> 100 µM (inactive)"),
    ("O=C(N/N=C/c1ccc([N+](=O)[O-])cc1)c1cccc2nc3ccccc3nc12", "M14", "> 100 µM (inactive)"),
    ("CC(=O)OC[C@@H](OC(C)=O)[C@H](OC(C)=O)[C@@H]1OC(C)(C)O[C@@H]1C1SCCCS1", "M14", "> 100 µM (inactive)"),
    ("COC(=O)c1cc(C#N)[nH]c1-c1ccsc1", "M14", "> 100 µM (inactive)"),
    ("O=C1C2=C(c3ccccc31)C(c1ccc(Cl)cc1)N1C(=O)CCSC1=N2 (stereo unspecified)", "M14", "> 100 µM (inactive)"),
    ("Cc1nc2c(O)cc3c4c([nH]c3c2nc1C)C(=O)CCC4", "M14", "3.35 µM (inactive)"),
    ("COc1ccc2c(c1)CC1COc3cc(OC)ccc3C1O2 (stereo unspecified)", "M14", "> 100 µM (inactive)"),
    ("COC(=O)/N=[N+](\\[O-])C(c1ccccc1)c1ccccc1", "M14", "31.8 µM (inactive)"),
    ("COc1cc(C(=O)O)c(-c2cc3c(cc2C=O)OCO3)c(OC)c1OC", "M14", "> 10 µM (inactive)"),
    ("O=C(O)[C@@H]1NC[C@H]2C(Br)=NO[C@H]21", "M14", "> 100 µM (inactive)"),
    ("C1=C[C@@H]2c3ccc4cnccc4c3NC[C@@H]2C1", "M14", "> 100 µM (inactive)"),
    ("O=C(c1cc(Cl)ccc1Cl)N1CCN(C(=O)c2cc(Cl)ccc2Cl)CC1", "M14", "> 100 µM (inactive)"),
    ("CCc1cccc(C)c1NC(=O)CCc1nnc(SC)o1", "M14", "> 100 µM (inactive)"),
    ("CCN(CC)c1ccc2cc(C(N)=O)c(=N)oc2c1", "M14", "34.4 µM (inactive)"),
    ("CCO/C(Cc1ccc(Cl)cc1)=N/NC(N)=S", "M14", "> 100 µM (inactive)"),
    ("CC(=O)O[C@H]1CC2C=CC3C(CCC31)O2 (stereo partly specified)", "M14", "> 100 µM (inactive)"),
    ("NCCCN(CCCCN(CCCN)CCCc1ccccc1)CCCc1ccccc1", "M14", "1.76 µM (inactive)"),
    ("COc1ccc(/C=C2/CSC/C(=C/c3ccc(OC)c(OC)c3)C2=O)cc1OC", "M14", "3.04 µM (inactive)"),
    ("Cc1ccc(/N=N/c2cc(=O)[nH]c(=O)[nH]2)cc1C", "M14", "14.2 µM (inactive)"),
]
